recorded.endpoint: melting point (°C)
Lab book: enter the figure in °C, no units written.

Field: example entries. Status: answers known.
O=[N+]([O-])c1cc(C(F)(F)F)ccc1C(Br)c1cnoc1C1CC1 (stereo not given)	146
O=C(COc1cc(-c2ccc(Cl)cc2)nc2ccccc12)N1CCOCC1	191
CSc1cncc(Oc2ccc(Cl)c(Cl)c2)c1	55

Then there is this compound:
The reported value for O=C(N=c1sc2cc(OC(F)(F)F)ccc2n1CCCO)C(F)(F)F in terms of melting point is 144

* * *

Reported melting point values follow for various compounds

Field: example entries. Status: answers known.
O=C(NO)c1cnc(N2CCC(CNS(=O)(=O)c3ccc(C(=O)Nc4ccc(Cl)c(-c5ccccn5)c4)c(Cl)c3)CC2)nc1	172 to 173 °C
Cc1ccn2nc(S(=O)(=O)Nc3c(Cl)cccc3Cl)nc2c1	232 to 234 °C
COc1ccc(C(CO)CNC(=O)C(N)=O)cc1OC1CCCC1 (stereo not drawn)	176 °C
CCCCN(CCCC)CCCOc1ccc(S(=O)(=O)c2ccc3ccccc3c2)cc1	90 °C

The reported value for Nc1nc(F)c(C(F)(F)F)cc1Cl in terms of melting point is 101 to 103 °C

The reported value for Cc1cccc(COc2cccc(OCc3ccc4ccccc4n3)c2)c1OCC(=O)O in terms of melting point is 154 to 157 °C

The reported value for CCC(Oc1ccccc1)c1nnc(N2C(=O)N(C)CC2O)s1 (stereo not drawn) in terms of melting point is 137 to 138 °C

The reported value for Nc1ccc(C(=O)OCCOC(=O)C[C@@H](C(=O)O)n2c3ccccc3c3ccccc32)cc1 in terms of melting point is 100 °C

The reported value for COC(=O)c1ccc(OCCNC(=O)C2Cc3ccccc3N2S(=O)(=O)c2ccc(-c3cccc(C(F)(F)F)c3)cc2)c(C(F)(F)F)c1 (stereo not drawn) in terms of melting point is 92 to 98 °C

The reported value for COc1cc(N2C(=O)C3(CC3)[C@@H](O)[C@@H]2C)ccc1C#N in terms of melting point is 167 to 169 °C

The reported value for C=CCOC(=O)c1cccc(NC(=O)NCC(=O)N(CC(=O)OC(C)(C)C)c2ccccc2C(=O)c2ccccc2)c1 in terms of melting point is 105 to 107 °C

The reported value for CCCOc1ccc(CCC(=O)N2CCN(C)CC2)cc1-c1nc2c(C)cccc2c(=O)[nH]1 in terms of melting point is 184 to 185 °C
